Inhibition reference
Test system: PC-3
ASSAY_OVERVIEW: The concentration to inhibit colony formation of PC3 human tumor cell lines
Format: functional
Square brackets hold non-standard residues; d marks the D form. Peptide text beside a SMILES is read from it. pGlu = O=C1CC[C@@H](C(=O)O)N1
Provide only the numeric value, understood in %.

Reference set (2 entries):
COMPOUND	READOUT_UNIT	Inhibition
NCCCC[C@H](NC(=O)[C@H](Cc1c[nH]c2ccccc12)NC(=O)[C@H](Cc1c[nH]cn1)NC(=O)[C@@H]1CCC(=O)N1)C(=O)N[C@@H](Cc1c[nH]cn1)C(=O)N[C@@H](CC(=O)O)C(=O)N[C@@H](Cc1c[nH]c2ccccc12)C(=O)N[C@@H](CCCCN)C(=O)N1CCC[C@H]1C(=O)NCC(N)=O	%	15
NCCCC[C@H](NC(=O)[C@H](Cc1cn(C=O)c2ccccc12)NC(=O)[C@H](CC(=O)O)NC(=O)[C@H](Cc1c[nH]cn1)NC(=O)[C@H](CO)NC(=O)[C@H](Cc1cn(C=O)c2ccccc12)NC(=O)[C@H](Cc1c[nH]cn1)NC(=O)[C@@H]1CCC(=O)N1)C(=O)N1CC=C[C@H]1C(=O)NCC(N)=O	%	20

Please look at the following compound next.
Request: Identify the reported Inhibition for the following entry. CCNC(=O)[C@@H]1CCCN1C(=O)[C@H](CCCCN)NC(=O)[C@H](Cc1c[nH]c2ccccc12)NC(=O)[C@H](CC(=O)O)NC(=O)[C@H](Cc1c[nH]cn1)NC(=O)[C@H](CO)NC(=O)[C@H](Cc1c[nH]c2ccccc12)NC(=O)[C@H](Cc1c[nH]cn1)NC(=O)[C@@H]1CCC(=O)N1 ([pGlu]HWSHDWKP-NHEt)
Response: 22

* * *

System: Ishikawa
ASSAY_OVERVIEW: The concentration to inhibit colony formation of Ishikawa human tumor cell lines
Assay type: functional
Values of Inhibition greater than or equal to 20% map to t; values below map to f.

Some solved cases for reference:
QUERY_SMILES	TARGET_SYSTEM	CLASSIFICATION
NCCCC[C@H](NC(=O)[C@H](Cc1c[nH]c2ccccc12)NC(=O)[C@H](CC(=O)O)NC(=O)[C@H](Cc1c[nH]cn1)NC(=O)[C@H](CO)NC(=O)[C@H](Cc1c[nH]c2ccccc12)NC(=O)[C@H](Cc1c[nH]cn1)NC(=O)[C@@H]1CCC(=O)N1)C(=O)N1CCC[C@H]1C(=O)NCC(N)=O	Ishikawa	f
NCCCC[C@H](NC(=O)[C@H](Cc1c[nH]c2ccccc12)NC(=O)[C@H](Cc1c[nH]cn1)NC(=O)[C@@H]1CCC(=O)N1)C(=O)N[C@@H](Cc1c[nH]cn1)C(=O)N[C@@H](CC(=O)O)C(=O)N[C@@H](Cc1c[nH]c2ccccc12)C(=O)N[C@@H](CCCCN)C(=O)N1CCC[C@H]1C(=O)NCC(N)=O	Ishikawa	t
CC(=O)NCCCC[C@H](NC(=O)[C@H](Cc1c[nH]c2ccccc12)NC(=O)[C@H](Cc1c[nH]cn1)NC(=O)[C@@H]1CCC(=O)N1)C(=O)N[C@@H](Cc1c[nH]cn1)C(=O)N[C@@H](CC(=O)O)C(=O)N[C@@H](Cc1c[nH]c2ccccc12)C(=O)N[C@@H](CCCCN)C(=O)N1CCC[C@H]1C(=O)NCC(N)=O	Ishikawa	f
C[C@@H](NC(=O)[C@@H]1CCCN1C(=O)[C@H](CCCCN)NC(=O)[C@H](Cc1c[nH]c2ccccc12)NC(=O)[C@H](CC(=O)O)NC(=O)[C@H](Cc1c[nH]cn1)NC(=O)[C@H](CO)NC(=O)[C@H](Cc1c[nH]c2ccccc12)NC(=O)[C@H](Cc1c[nH]cn1)NC(=O)[C@@H]1CCC(=O)N1)C(N)=O	Ishikawa	f

Request: Does Inhibition meet or surpass 20% for "CC(C)C[C@H](NC(=O)CNC(=O)[C@H](Cc1ccc(O)cc1)NC(=O)[C@H](CO)NC(=O)[C@H](Cc1c[nH]c2ccccc12)NC(=O)[C@H](Cc1c[nH]cn1)NC(=O)[C@@H]1CCC(=O)N1)C(=O)N[C@@H](CCCN=C(N)N)C(=O)N1CCC[C@H]1C(=O)NCC(N)=O" ?
Response: f

Request: Does Inhibition meet or surpass 20% for "NCCCC[C@H](NC(=O)[C@H](Cc1c[nH]c2ccccc12)NC(=O)[C@H](CCC(=O)O)NC(=O)[C@H](Cc1c[nH]cn1)NC(=O)[C@H](CO)NC(=O)[C@H](Cc1c[nH]c2ccccc12)NC(=O)[C@H](Cc1c[nH]cn1)NC(=O)[C@@H]1CCC(=O)N1)C(=O)N1CCC[C@H]1C(=O)NCC(N)=O" ?
Response: f

Request: Does Inhibition meet or surpass 20% for "NCCCC[C@H](NC(=O)[C@H](CO)NC(=O)[C@H](Cc1c[nH]c2ccccc12)NC(=O)[C@H](Cc1c[nH]cn1)NC(=O)[C@@H]1CCC(=O)N1)C(=O)N[C@@H](CC(=O)O)C(=O)N[C@@H](Cc1c[nH]c2ccccc12)C(=O)N[C@@H](CCCCN)C(=O)N1CCC[C@H]1C(=O)NCC(N)=O" ?
Response: f

Request: Does Inhibition meet or surpass 20% for "NC(=O)CNC(=O)[C@@H]1CCCN1C(=O)[C@@H]1CCCCNC(=O)C[C@H](NC(=O)[C@H](Cc2c[nH]cn2)NC(=O)[C@H](CO)NC(=O)[C@H](Cc2c[nH]c3ccccc23)NC(=O)[C@H](Cc2c[nH]cn2)NC(=O)[C@@H]2CCC(=O)N2)C(=O)N[C@@H](Cc2c[nH]c3ccccc23)C(=O)N1" ?
Response: f

Request: Does Inhibition meet or surpass 20% for "NCCCC[C@H](NC(=O)[C@H](Cc1cn(C=O)c2ccccc12)NC(=O)[C@H](CC(=O)O)NC(=O)[C@H](Cc1c[nH]cn1)NC(=O)[C@H](CO)NC(=O)[C@H](Cc1cn(C=O)c2ccccc12)NC(=O)[C@H](Cc1c[nH]cn1)NC(=O)[C@@H]1CCC(=O)N1)C(=O)N1CC=C[C@H]1C(=O)NCC(N)=O" ?
Response: t

Request: Does Inhibition meet or surpass 20% for "NCCCC[C@H](NC(=O)[C@H](CO)NC(=O)[C@H](Cc1c[nH]c2ccccc12)NC(=O)[C@H](Cc1c[nH]cn1)NC(=O)[C@@H]1CCC(=O)N1)C(=O)N[C@H]1CC(=O)NCCCC[C@@H](C(=O)N2CCC[C@H]2C(=O)NCC(N)=O)NC(=O)[C@H](Cc2c[nH]c3ccccc23)NC1=O" ?
Response: f
